Experiment: NCI Yeast Anticancer Drug Screen. Data for the rad52 strain (AID 147)
Conditions: S. cerevisiae rad52 mutant growth inhibition; at 1.2 µM
Method: Growth inhibition of yeast strains with defined genetic alterations is measured as a screen for potential anti-cancer activity. Selected strains with alterations in DNA damage repair or cell cycle control were exposed to compounds and growth inhibition was measured relative to vehicle treated controls. The strain used in this assay is rad52
This is part of a sample that, as a whole, favours compounds with a hit. Of some 79,000 tested, about 15% had one in any assay. The source made the active and inactive calls. Rule as the data show it: active = growth inhibition above about 70%; inactive = the rest.
// one of active, inactive, no free text

Examples from the recorded data:
{"columns": ["compound", "answer_label"],
 "data": [
  ["COC(=O)c1ccc([N+](=O)[O-])c(O)c1", "inactive"],
  ["COc1cc2c3c(cccc3c1)C(=O)N(CCN(C)C)C2=O", "inactive"],
  ["O=[N+]([O-])c1cc2no[n+]([O-])c2cc1N1CCCCC1", "inactive"]
]}

Record request — test call for COc1ccc2nc3cccc([N+](=O)[O-])c3c(NCCN(CCO)CCO)c2c1
active

Please indicate how the test categorized O=[N+]([O-])c1ccc([N+]2=NC(c3ccccc3)=NN(c3ccccc3)C2)cc1 .
inactive

Returns: the outcome recorded for O=C(/C=C\c1ccc(Cl)cc1Cl)c1cccs1 in this assay.
inactive

====

experiment: NCI Yeast Anticancer Drug Screen. Data for the mec2-1 strain (AID 157); conditions: S. cerevisiae mec2-1 strain, at 100.0 µM
The panel holds about 79,000 compounds, 15% with a hit somewhere; the sample as a whole holds those more often. Activity calls are given as the source filed them. Rule as the data show it: active = growth inhibition above about 70%; inactive = the rest.
// allowed return values: active, inactive

Would you please look over these solved cases?
{"columns": ["compound", "answer_label"],
 "data": [
  ["O=C1c2cc([N+](=O)[O-])ccc2-c2cccc(F)c21", "inactive"],
  ["CCCCCCCCCCCCCCCCCCNC", "active"],
  ["CCCC/C=C/C(CC)(C(=O)OCC)C(=O)OCC", "inactive"],
  ["CN(C)Cc1cc(N=Nc2ccc(Cl)cc2)cc(CN(C)C)c1O", "inactive"],
  ["Cc1nn(-c2cc(Cl)ccc2[N+](=O)[O-])c(C)c1Cl", "inactive"]
]}

Which result was noted for this compound in the test: O=C1c2ccccc2C(=O)c2c(NC3CCCCC3)ccc(Nc3ccc(S(=O)(=O)O)cc3)c21
inactive

State the result this test recorded for O=[N+]([O-])c1ccc2c(c1)C(N1CCN(CCO)CC1)Cc1ccc(F)cc1S2 (centres undefined) .
inactive

====

assay: NCI Yeast Anticancer Drug Screen. Data for the rad52 strain (AID 147); conditions: S. cerevisiae rad52 mutant growth inhibition; at 100.0 µM
This is part of a sample that, as a whole, favours compounds with a hit. Of some 79,000 tested, about 15% had one in any assay. Calls of active or inactive are those of the source. Cut-off read from the data, not from the text of the source: active = growth inhibition above about 70%; inactive = the rest.
// classify into y = active, n = inactive

Worked examples, 5 molecules total:
{"columns": ["molecule", "answer_label"],
 "data": [
  ["[N-]=N[N+]#I1OC(C(F)(F)F)(C(F)(F)F)c2ccccc21", "y"],
  ["Cc1ccc(Cl)c2[nH]c(-c3ccccc3)cc(=O)c12", "n"],
  ["Oc1ccc2ccccc2c1C(c1ccc(Cl)cc1)c1c(O)ccc2ccccc12", "y"],
  ["CC(C)[N+]([O-])(CCCNc1c2ccccc2nc2cccc([N+](=O)[O-])c12)C(C)C", "y"],
  ["Oc1cccc2c(Cl)ccnc12", "y"]
]}

As a next step, examine the molecule that follows.
Lab log entry: O=C1NC(=O)C2C3C=CC(C3)C12 (stereo unspecified) — outcome as called in the assay?
n
